- System: SNB-75 CNS
- Assay text: NCI-60 one-dose screen, 48 h (100 = growth as untreated, 0 = no growth, -100 = all killed)
- Measurement setup: 10 µM unless noted
- Protocol: Growth inhibition of the SNB-75 human tumor cell line is measured as a screen for anti-cancer activity. Cells are grown in 96 well plates and exposed to the test compound for 48 hours. Compounds are tested at a single concentration, which is 10^-5 M for most compounds. The reported endpoint is percent growth (GI% or GIPRCNT), where numbers from 0 - 100% represent growth inhibition, and numbers from -100% - 0 represent cell death. For example, a value of 40 represents 60% growth inhibition. […]
About 83,000 compounds went through this panel and 20% of them were active in at least one assay; those are over-represented in the sample as a whole.
The label is Y for growth below 80% and N for growth equal to or exceeding 80%.

>>> answer_label("Nc1n[nH]c2ccc([C@@H]3Nc4cc5c(cc4[C@H]4C6CCC(C6)[C@@H]34)C(=O)NC5)cc12 (stereo partly specified)")
"Y"
>>> answer_label("COc1cc2nc(N3CCCC3)nc(NCc3ccccc3)c2cc1OC")
"Y"
>>> answer_label("COc1cc(/C=C/c2cc(/C=C/c3ccc(O)c(OC)c3)n(-c3c(C)cccc3C)c(=O)n2)ccc1O")
"Y"
>>> answer_label("O=C(/C=C/C=C/c1ccc2c(c1)OCO2)N/N=C\\c1ccc(O)cc1O")
"Y"
>>> answer_label("COc1ccc(/C=C(\\C#N)C(=O)Nc2cccc(Nc3nc(SC)nc(-c4cccc([N+](=O)[O-])c4)c3C#N)c2)cc1OC")
"N"
>>> answer_label("Cc1ncc(C(=O)Nc2ccc(CN3CCN(C)CC3)c(C(F)(F)F)c2)cc1C#Cc1cnc2cccnn12")
"Y"
>>> answer_label("FC(F)(F)Oc1ccc2nc3nc4ccc[nH]c4cc3c2c1")
"Y"
>>> answer_label("N=C(N)c1ccc(-c2ccc(-c3ccc4ccccc4c3)s2)s1")
"N"

###

- Test system: RXF 393 renal
- Assay text: NCI-60 one-dose screen, 48 h
- Measurement setup: 10 µM unless noted
This is part of a sample that, as a whole, favours compounds with a hit. Of some 83,000 tested, about 20% had one in any assay. Activity calls are given as the source filed them. The calls were made as follows: active = growth percent below 10; inactive = the rest.
Possible outcomes: yes for active, no for inactive

>>> answer_label("CSc1nc(NCCN2CCOCC2)c(C#N)c(-c2cccc([N+](=O)[O-])c2)n1")
"no"
>>> answer_label("COc1cc(Nc2cc(C)nc(N3CCN(c4ccnc5cc(Cl)ccc45)CC3)n2)cc(OC)c1")
"yes"
>>> answer_label("OCCN1CCN(c2nc(Nc3ccc(-c4nc5ccccc5[nH]4)cc3)c3cn[nH]c3n2)CC1")
"yes"
>>> answer_label("Cc1cc(C)c2nc3nc(C)cc(C)c3c(N)c2c1")
"no"

###

- Tested on: NCI-H23 lung
- Assay text: NCI-60 one-dose screen, 48 h (100 = growth as untreated, 0 = no growth, -100 = all killed)
- Measurement setup: 10 µM unless noted
Compounds without any hit were thinned out: in the full panel of roughly 83,000, 20% have a hit. Calls of active or inactive are those of the source. Rule for the calls: active = growth percent below 10; inactive = the rest.
Reported property: growth

>>> observed_measurement("COC(=O)[C@]12CCC(C)(C)C[C@H]1[C@H]1C(=O)C[C@@H]3[C@@]4(C)c5c([nH]c6ccccc6c5=O)C(C)(C)[C@@H]4CC[C@@]3(C)[C@]1(C)CC2")
"65.8% (inactive)"
>>> observed_measurement("C#CCOc1ccc2ncnc(Nc3cccc(CNC(=O)CCl)c3)c2c1")
"44.5% [8.25 µM] (inactive)"
>>> observed_measurement("COc1cc(/C=C/c2cc(O)c3cc(C(C)=O)c(=O)oc3c2)cc2c1O[C@]1(C)CC[C@@H](O)C(C)(C)[C@H]1C2")
"52.1% (inactive)"
>>> observed_measurement("COc1ccc(/C=C/c2nc(-c3n[nH]c(=O)n3-c3ccccc3)c3ccccc3n2)cc1")
"94.8% (inactive)"
>>> observed_measurement("OCCNc1nccc(N2CCN(c3ccnc4cc(Cl)ccc34)CC2)n1")
"80.5% (inactive)"
>>> observed_measurement("CCCn1c(=O)[nH]c(N)c([C@H]2c3ccccc3Oc3[nH]c(=O)n(CCC)c(=O)c32)c1=O")
"86.2% (inactive)"
>>> observed_measurement("CC1=NN(c2nc(-c3ccc(Cl)cc3)c(C#N)c(N3CCOCC3)n2)C(=O)C1")
"80.7% (inactive)"
>>> observed_measurement("O=C(Cc1ccc(/C=C/C(=O)c2ncc[nH]2)cc1)Nc1ccccc1")
"39.8% (inactive)"
>>> observed_measurement("O=c1cc(/C(=C2/C=CC=N2)c2ccc[nH]2)c2cc(Cl)ccc2o1")
"62.3% (inactive)"
